Exercise: for every item that follows, state its recorded inhibition at 1 µM.
target: 5-Lipoxygenase (Homo sapiens); construct: from tissue; host or cells: whole blood of male human donors (endogenous enzyme of the leukocytes); experiment: Inhibition of 5-Lipoxygenase in Human Whole Blood (LTB4, calcium ionophore A23187); type: cell-based; settings: 1 μM
Sequence (P09917 whole entry): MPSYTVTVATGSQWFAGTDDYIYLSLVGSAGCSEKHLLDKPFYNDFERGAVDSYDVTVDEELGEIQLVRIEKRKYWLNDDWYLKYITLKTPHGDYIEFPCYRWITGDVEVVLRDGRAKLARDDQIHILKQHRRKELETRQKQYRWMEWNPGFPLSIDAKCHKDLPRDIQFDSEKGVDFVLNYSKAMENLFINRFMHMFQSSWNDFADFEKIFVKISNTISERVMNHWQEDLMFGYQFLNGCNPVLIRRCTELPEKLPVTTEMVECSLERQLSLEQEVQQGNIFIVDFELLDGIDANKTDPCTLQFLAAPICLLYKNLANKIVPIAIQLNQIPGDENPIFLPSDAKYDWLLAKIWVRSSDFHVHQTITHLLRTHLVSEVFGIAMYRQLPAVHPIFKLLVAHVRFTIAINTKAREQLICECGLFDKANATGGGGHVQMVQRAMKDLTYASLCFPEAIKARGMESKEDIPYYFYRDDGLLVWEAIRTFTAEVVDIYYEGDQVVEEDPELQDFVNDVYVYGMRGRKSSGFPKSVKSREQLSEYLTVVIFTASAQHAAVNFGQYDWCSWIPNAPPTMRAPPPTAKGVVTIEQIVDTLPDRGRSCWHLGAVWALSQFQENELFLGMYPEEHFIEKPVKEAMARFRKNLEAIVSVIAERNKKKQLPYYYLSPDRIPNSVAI
Numbers only, in %.

Some solved entries appear below for comparison.
* Cc1oc(-c2ccc(C(F)(F)F)cc2)nc1COc1ccc(CN(O)C(N)=O)cc1 [Example 6] | 34
* NC(=S)N(O)Cc1ccc(OCc2csc(-c3ccc(Cl)cc3)n2)cc1 [Example 15] | 57
* NC(=O)N(O)Cc1ccc(OCc2csc(-c3ccc(C(F)(F)F)cc3)n2)cc1 [Example 12] | 56
* NC(=O)N(O)Cc1ccc(OCc2coc(-c3ccc(C(F)(F)F)cc3)n2)cc1 [Example 11] | 32
* COc1ccc(-c2nc(COc3ccc(CN(O)C(N)=O)cc3)cs2)cc1 [Example 17] | 56

State recorded inhibition at 1 µM for all listed molecules.
1. Cc1oc(-c2ccc(OCC(F)(F)F)cc2)nc1COc1ccc(CN(O)C(N)=O)cc1 [Example 7]
2. Cc1oc(-c2ccccc2)nc1COc1ccc(CN(O)C(N)=O)cc1F [Example 5]
3. NC(=O)N(O)Cc1ccc(OCc2csc(-c3ccccc3)n2)cc1 [Example 10]
4. Cc1oc(-c2ccccc2)nc1COc1ccc(CN(O)C(N)=O)cc1 [Example 1]

Reply:
74
47
44
50
